# System: SF-539 CNS
# method: NCI tumour cell line growth inhibition, 48 h
Field: TGI. Provide a value for each of the compounds that follow.

Sample answers from the record:
>>> value("Cc1ccc(N/N=C/C2=CC(C)(C)C(C#N)(C#N)C(O)=C2C#N)cc1")
"> 100 µM"
>>> value("O=c1[nH]ccc2nc(N3CCC(O)CC3)nc(Nc3ccc(N4CCOCC4)cc3)c12")
"11.2 µM"

Kindly review the next compound as well.
Requested field: TGI. Item: `COc1c(C(=O)/C(=N/Nc2cccc(Cl)c2)C(C)=O)c(O)c(OC)c2occc12`
> 100 µM

###

# System: SK-OV-3 ovarian
# method: NCI tumour cell line growth inhibition, 48 h
quantity.kind: TGI

>>> value("COC(=O)c1c(O)ccc2c1c1cc3ccccc3c(O)c1n2Cc1ccccc1Cl")
"48.6 µM"
>>> value("O=C1C[C@@H]2[C@@H](C=CC23CC3)N1O")
"> 100 µM"
>>> value("COc1ccc(OC)c2sc(N3C(=O)/C(=C/c4ccc(SC)cc4)N=C3c3ccccc3)nc12")
"> 100 µM"
>>> value("[N-]=[N+]=CC(=O)OC1CCc2ccccc21 (stereo unspecified)")
"> 100 µM"
>>> value("Cc1cc(NCCCNc2ccnc3cc(Cl)ccc23)nc(Nc2ccc(C(=O)N3CCCCC3)cc2)n1")
"8.23 µM"

Now for a further compound.
Which TGI is reported for this compound? `Nc1nc(N)c2c(CCc3ccc(C(=O)N[C@@H](CCC(=O)O)C(=O)O)cc3)ccnc2n1`
> 100 µM

This collection of values is drawn from PubChem BioAssay (NCI).
